Where do these numbers come from? They come from patent US20250059282A1.

assaySystem: T1, Cyno PD-L1-Fc (cynomolgus, UniProt G7PSE7 19-238)
T1 construct: also called cynomolgus PD-L1
T1 sequence (G7PSE7 entry or part of it limits assumed): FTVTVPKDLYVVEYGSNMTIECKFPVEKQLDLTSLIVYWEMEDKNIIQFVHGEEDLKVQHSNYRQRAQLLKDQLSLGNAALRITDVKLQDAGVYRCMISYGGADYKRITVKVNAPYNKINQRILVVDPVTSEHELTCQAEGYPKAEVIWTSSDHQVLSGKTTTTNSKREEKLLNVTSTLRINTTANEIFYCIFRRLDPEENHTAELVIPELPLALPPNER
test: ForteBio, IgG, avid
assayEndpoint: Kd (nM)
The reply should contain only the number, in nM.

# input I'd like to know its Kd. The binder in question is BiPDL4-34 (antibody, V domains shown, Fourth generation, IgG) VH: QVQLVESGGGVIQPGRSLRLSCAASGFTFSAYLMHWVRQAPGKGLEWVAAIGYDGMNKYYADSVKGRFTISRDNSKNTLYLQMNSLRAEDTAVYYCARAGIEYSYAYTDYWGQGTLVTVSS VL: EIVLTQSPGTLSLSPGERATLSCRASQFVYSSDLAWYQQKPGQAPRLLIYGASARAAGIPDRFSGSGSGTDFTLTISRLEPEDFAVYYCMQFGWWPPRTFGGGTKVEIK
# output 0.408
